test: protein stability index of a GFP-peptide fusion (yeast GPS) (PSI 1-4); higher = more stable; sorted into four equal gates, so the index is relative within each strain; details: ubr1∆
Tag: criterion met if measured protein stability index is not below 3, criterion not met if it is.

Some solved entries appear below for comparison.
seq | assigned-category
LRSTENGIVDQVLVTTN [RPB2] | criterion not met
NTFQKTVEPVYQMHIKT [FAS1] | criterion not met
EASTVPWGDYLQLETPA [BRR2] | criterion not met
IDEDIGNNVQENELVIT [RMP1] | criterion met
KSSAFVIDIGASGCNVT [ARP7] | criterion not met

# check: protein stability index of VFNDAHVLNKVTLASIL [RPN1] is greater than or equal to 3
criterion not met

Values were extracted from the supplement of paper PMC9732359.
